Molecular target: α1b-AR (Homo sapiens)
Sequence (P35368 whole entry): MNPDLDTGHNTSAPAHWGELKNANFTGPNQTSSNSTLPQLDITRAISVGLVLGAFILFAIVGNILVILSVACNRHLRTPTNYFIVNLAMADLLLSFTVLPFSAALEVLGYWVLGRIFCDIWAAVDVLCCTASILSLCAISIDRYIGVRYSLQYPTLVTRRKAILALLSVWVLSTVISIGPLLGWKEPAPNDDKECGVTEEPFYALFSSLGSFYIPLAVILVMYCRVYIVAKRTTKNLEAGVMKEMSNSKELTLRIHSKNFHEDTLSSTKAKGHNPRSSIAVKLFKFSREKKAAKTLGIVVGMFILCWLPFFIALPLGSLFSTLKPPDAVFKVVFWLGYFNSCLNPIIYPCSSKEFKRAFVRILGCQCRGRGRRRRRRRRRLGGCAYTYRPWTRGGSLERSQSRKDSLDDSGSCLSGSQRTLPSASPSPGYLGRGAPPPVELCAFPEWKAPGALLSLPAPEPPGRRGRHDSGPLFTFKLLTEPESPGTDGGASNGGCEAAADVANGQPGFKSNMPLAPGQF
quantityKind: pKi
For clarity, pKi is expressed as the negative log10 of concentration in mol/L.

Please report the measured pKi for CC(C)Oc1ccccc1N1CCN(C2CCC(N3C(=O)c4ccncc4C3=O)CC2)CC1 (mixture of isomers) [Cpd 6]
7.65

Using the record for CC(C)Oc1ccccc1N1CCN([C@H]2CC[C@@H](N3C(=O)c4ccc5ccc(F)cc5c4C3=O)CC2)CC1 [Cpd 8] , state its measured pKi.
6.57

Origin of measurements: patent US7459557B2
